Tested on: miR-124
Experiment Notes: Modulation of miR-124 expression in PBMCs (qPCR, relative quantification)
Assay type: cell-based, human
Condition Info: Homo sapiens, PBMC, 144 h; miR-124 expression, PBMCs of healthy donors, quinoline derivatives 5 μM, extraction day 6, mean over 1 to 7 donors; read-out: Fold-change compared to DMSO treated cells (Relative quantification) Mean
Label true (1) when fold induction at 5 µM < 6; otherwise false (0).

Smiles Text: FC(F)(F)c1ccnc(Oc2ccc3cccc(Cl)c3n2)c1
Label Value: false (0)

Smiles Text: Cc1cc2c(N)ccc(Cl)c2nc1Nc1ccc(OC(F)(F)F)c(Cl)c1
Label Value: true (1)

Smiles Text: CN(c1cc(C(F)(F)F)ccn1)c1ccc2cccc(Cl)c2n1
Label Value: false (0)

Smiles Text: FC(F)(F)Oc1ccc(Nc2ccc3cccc(Cl)c3n2)cc1
Label Value: false (0)

Smiles Text: FC(F)(F)Oc1ccc(Oc2ccc3cccc(Cl)c3n2)cc1
Label Value: false (0)

====

System: miR-124
Experiment Notes: Modulation of miR-124 expression in PBMCs (qPCR, relative quantification)
Format: cell-based, human
Condition Info: Homo sapiens, PBMC, 144 h; miR-124 expression, PBMCs of healthy donors, quinoline derivatives 5 μM, extraction day 6, mean over 1 to 7 donors; read-out: Fold-change compared to DMSO treated cells (Relative quantification) Mean

Smiles Text: FC(F)(F)c1ccnc(Nc2ccc3cccc(Cl)c3n2)c1
Tested On: miR-124
fold induction at 5 µM: 16.3

Smiles Text: Cc1ccnc(Nc2ccc3cccc(Cl)c3n2)c1
Tested On: miR-124
fold induction at 5 µM: 32

Smiles Text: FC(F)(F)c1ccnc(Nc2cc(NCCCN3CCCCC3)c3cccc(Cl)c3n2)c1
Tested On: miR-124
fold induction at 5 µM: 112

Smiles Text: FC(F)(F)c1ccnc(Nc2ccc3c(OCCCN4CCCCC4)ccc(Cl)c3n2)c1
Tested On: miR-124
fold induction at 5 µM: 7.97

Smiles Text: FC(F)(F)c1ccnc(Nc2ccc3c(OCCN4CCCCC4)ccc(Cl)c3n2)c1
Tested On: miR-124
fold induction at 5 µM: 30.9

Smiles Text: Fc1ccc(Nc2ccc3cccc(Cl)c3n2)nc1
Tested On: miR-124
fold induction at 5 µM: 48.5

Smiles Text: Nc1ccc(Cl)c2nc(Nc3ccc(OC(F)(F)F)c(Cl)c3)ccc12
Tested On: miR-124
fold induction at 5 µM: 6.13

Smiles Text: Cc1ccnc(Nc2ccc3cccc(Cl)c3n2)c1N
Tested On: miR-124
fold induction at 5 µM: 24.4

Smiles Text: COc1ccc(Nc2ccc3cccc(Cl)c3n2)cc1
Tested On: miR-124
fold induction at 5 µM: 45.1

Smiles Text: FC(F)(F)c1ccc(Nc2ccc3cccc(Cl)c3n2)nc1
Tested On: miR-124
fold induction at 5 µM: 66.7

Smiles Text: CN(c1ccc(OC(F)(F)F)cc1)c1ccc2cccc(Cl)c2n1
Tested On: miR-124
fold induction at 5 µM: 22.2

Smiles Text: FC(F)(F)Oc1ccc(N(CCCN2CCCCC2)c2ccc3cccc(Cl)c3n2)cc1
Tested On: miR-124
fold induction at 5 µM: 9.88

====

System: miR-124
Experiment Notes: Modulation of miR-124 expression in PBMCs (qPCR, relative quantification)
Type: cell-based, human
Condition Info: Homo sapiens, PBMC, 144 h; miR-124 expression, PBMCs of healthy donors, quinoline derivatives 5 μM, extraction day 6, mean over 1 to 7 donors; read-out: Fold-change compared to DMSO treated cells (Relative quantification) Mean
// fold induction at 5 µM lookup, one value per entry

Smiles Text: FC(F)(F)c1ccnc(Nc2ccc3c(OCCN4CCOCC4)ccc(Cl)c3n2)c1
Tested On: miR-124
fold induction at 5 µM: 26.8
--
Smiles Text: Clc1cccc2ccc(Nc3cnccn3)nc12
Tested On: miR-124
fold induction at 5 µM: 34.2
--
Smiles Text: Nc1cc(OC(F)(F)F)ccc1Nc1ccc2cccc(Cl)c2n1
Tested On: miR-124
fold induction at 5 µM: 14.3
--
Smiles Text: Nc1ccc(Cl)c2nc(Nc3cc(C(F)(F)F)ccn3)ccc12
Tested On: miR-124
fold induction at 5 µM: 7.54
--
Smiles Text: FC(F)(F)c1ccnc(Nc2cc(NCCN3CCOCC3)c3cccc(Cl)c3n2)c1
Tested On: miR-124
fold induction at 5 µM: 17.4

Every entry's value here was drawn from patent US12202804B2.
